From: patent US7932270B2

# tested_target: chicken gizzard smooth muscle myosin subfragment-1 chemically crosslinked to cardiac or skeletal actin (Gallus gallus, UniProt P10587)
Task for the reader: assign each of the following compounds its reported IC50.
Quick reminder: number only, in µM, skip the unit.

input: Can you look up the measured IC50 of `N#Cc1ccccc1-c1ccc(C(=O)NCCO)c(NCCc2cccc(F)c2)n1` for me?
output: 1.08

input: Can you look up the measured IC50 of `C[C@@H](CNC(=O)c1ccc(-c2ccccc2C#N)nc1NCCc1cccc(F)c1)NC(=O)CCCNC(=O)OC(C)(C)C` for me?
output: 2.02

input: Can you look up the measured IC50 of `CC[C@H](CNC(=O)c1cc(F)c(-c2cnn(C)c2)nc1NCCc1cccc(F)c1)NC(=O)CN` for me?
output: 0.131

input: Can you look up the measured IC50 of `Cn1cc(-c2ccc(C(=O)NC[C@H]3CCC(=O)N3CCCN)c(NCCc3cccc(F)c3)n2)cn1` for me?
output: 0.29

input: Can you look up the measured IC50 of `O=C(NCc1cccnc1)c1ccc(-c2ccccc2)nc1NCCCn1ccnc1` for me?
output: 30.3

input: Can you look up the measured IC50 of `N#Cc1ccccc1-c1ccc(C(=O)NCCc2cccnc2)c(NCCc2cccc(F)c2)n1` for me?
output: 0.15

input: Can you look up the measured IC50 of `O=C(NCc1cccnc1)c1ccc(-c2ccc(C(=O)NCc3cccnc3)c(NCCc3cccc(F)c3)n2)nc1NCCc1cccc(F)c1` for me?
output: 30.6

input: Can you look up the measured IC50 of `CN(C)CCNC(=O)c1ccc(-c2ccccc2C#N)nc1NCCc1cccc(F)c1` for me?
output: 4.22

input: Can you look up the measured IC50 of N#Cc1ccccc1-c1ccc(C(=O)NCC2CCN(C(=O)CCCN)C2)c(NCCc2cccc(F)c2)n1 (stereo not drawn) for me?
output: 0.433

input: Can you look up the measured IC50 of `CNC(=O)[C@@H](N)CNC(=O)c1ccc(-c2ccccc2C#N)nc1NCCc1cccc(F)c1` for me?
output: 2.32

input: Can you look up the measured IC50 of `Cn1cc(-c2ccc(C(=O)NC[C@H]3CCCN3C(=O)CO)c(NCCc3cccc(F)c3)n2)cn1` for me?
output: 1.78

input: Can you look up the measured IC50 of `O=C(NCc1cc[nH]n1)c1ccc(-c2ccccc2)nc1NCCc1ccccn1` for me?
output: 0.711

input: Can you look up the measured IC50 of `C[C@H](N)C(=O)N1CCC[C@@H]1CNC(=O)c1ccc(-c2ccccc2C#N)nc1NCCc1cccc(F)c1` for me?
output: 0.053

input: Can you look up the measured IC50 of `C[C@H](CNC(=O)c1cc(F)c(-c2cnn(C)c2)nc1NCCc1cccc(F)c1)NC(=O)CCCNC(=O)OC(C)(C)C` for me?
output: 0.1

input: Can you look up the measured IC50 of `CC(C)(C)OC(=O)N1CCC[C@@H]1CNC(=O)c1cc(C#N)c(-c2cn[nH]c2)nc1NCCc1cccc(F)c1` for me?
output: 6.41

input: Can you look up the measured IC50 of `COC(=O)N1CCCC[C@@H]1CNC(=O)c1ccc(-c2ccccc2C#N)nc1NCCc1cccc(F)c1` for me?
output: 4.28

input: Can you look up the measured IC50 of `CC(C)CCNc1nc(-c2ccccc2)ccc1C(=O)NCc1cccnc1` for me?
output: 2.48

input: Can you look up the measured IC50 of `Cn1cc(-c2nc(NCCc3cccc(F)c3)c(C(=O)NC[C@H]3CCCN3C(=O)[C@@H](N)CO)cc2F)cn1` for me?
output: 0.072
